// data source = patent US20260297085A1

Entries and their pIC50 values follow.
# Experimental Target: human JAK1 kinase domain (JH1) (Homo sapiens)
# Construct: recombinantly generated catalytic kinase (also known as JH1) domain of human JAK1, JAK2, JAK3 and TYK2
# Sequence (P23458 875-1153 limits assumed): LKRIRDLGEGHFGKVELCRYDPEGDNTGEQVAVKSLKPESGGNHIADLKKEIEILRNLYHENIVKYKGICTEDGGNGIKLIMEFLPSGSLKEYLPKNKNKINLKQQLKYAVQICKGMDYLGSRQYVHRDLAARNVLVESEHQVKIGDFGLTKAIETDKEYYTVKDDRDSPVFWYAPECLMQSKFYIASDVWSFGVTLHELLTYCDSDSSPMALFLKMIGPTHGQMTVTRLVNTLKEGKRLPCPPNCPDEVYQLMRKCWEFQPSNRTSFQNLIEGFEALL
# Protocol Details: JH1 biochemical assay for JAK1 (ADP-Glo kinase assay, recombinant JH1 catalytic domain, JAK3-342 peptide, 35 μM ATP)
# Study Conditions: JH1 kinase domain, ADP-Glo
pIC50: −log10 of the molar value.

Q: Entry `Cn1cc(-c2cc3c(N4CC[C@@](C#N)(C5CC5)C4=O)ccnn3c2)c(F)n1` : reported pIC50 = ?
Result: 6.00 to 7.00

Q: Entry `CCn1cc(-c2cn3nccc3c(N3C[C@@H](C)[C@@](C#N)(C4CC4)C3=O)n2)cn1` : reported pIC50 = ?
Result: > 7.00

Q: Entry `COc1cc(-c2cc3c(N4CC[C@](C#N)(C5CC5)C4=O)ccnn3c2)ccn1` : reported pIC50 = ?
Result: 5.00 to 5.30

Q: Entry `C[C@@H]1CN(c2ccnn3cc(-c4cccnc4F)cc23)C(=O)[C@]1(C#N)C1CC1` : reported pIC50 = ?
Result: 6.00 to 7.00

* * *

# Experimental Target: JAK2 kinase activity on STAT5 in TF1 cells (Homo sapiens)
# Sequence (O60674 whole entry): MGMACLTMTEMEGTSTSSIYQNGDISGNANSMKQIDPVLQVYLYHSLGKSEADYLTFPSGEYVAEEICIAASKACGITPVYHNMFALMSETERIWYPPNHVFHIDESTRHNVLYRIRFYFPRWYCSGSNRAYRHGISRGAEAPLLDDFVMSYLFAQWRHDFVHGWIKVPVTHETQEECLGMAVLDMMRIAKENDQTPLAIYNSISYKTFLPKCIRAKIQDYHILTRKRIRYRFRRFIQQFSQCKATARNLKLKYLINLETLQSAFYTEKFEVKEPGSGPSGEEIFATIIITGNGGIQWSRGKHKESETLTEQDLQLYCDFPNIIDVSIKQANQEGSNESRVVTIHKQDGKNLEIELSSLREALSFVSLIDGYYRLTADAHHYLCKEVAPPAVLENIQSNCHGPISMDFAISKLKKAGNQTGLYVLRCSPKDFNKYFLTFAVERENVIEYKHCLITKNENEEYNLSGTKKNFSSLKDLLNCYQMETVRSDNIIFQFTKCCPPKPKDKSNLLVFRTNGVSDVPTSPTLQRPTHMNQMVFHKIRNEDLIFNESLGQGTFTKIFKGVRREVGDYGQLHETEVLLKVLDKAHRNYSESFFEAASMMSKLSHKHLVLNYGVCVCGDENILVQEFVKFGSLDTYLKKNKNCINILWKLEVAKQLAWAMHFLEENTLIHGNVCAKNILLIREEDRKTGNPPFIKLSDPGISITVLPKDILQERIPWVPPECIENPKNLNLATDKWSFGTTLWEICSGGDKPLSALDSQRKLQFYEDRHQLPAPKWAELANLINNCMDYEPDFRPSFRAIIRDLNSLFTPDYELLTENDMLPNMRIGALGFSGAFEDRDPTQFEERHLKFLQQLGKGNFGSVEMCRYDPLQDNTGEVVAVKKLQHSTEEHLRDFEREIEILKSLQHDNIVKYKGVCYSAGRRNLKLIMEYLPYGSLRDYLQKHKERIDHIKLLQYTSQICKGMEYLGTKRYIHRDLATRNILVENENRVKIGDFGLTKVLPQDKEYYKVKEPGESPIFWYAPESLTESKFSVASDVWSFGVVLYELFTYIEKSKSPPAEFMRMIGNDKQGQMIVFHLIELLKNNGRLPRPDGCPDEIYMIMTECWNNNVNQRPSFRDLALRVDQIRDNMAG
# Protocol Details: pSTAT5 cell assay (MSD; TF1 cells, 30 ng/mL IL-3 stimulation)
# Study Conditions: 30 ng/mL IL-3, 15 minutes
pIC50: −log10 of the molar value. Where a name gives a salt, the structure may show the parent alone.
Measurement Type: pIC50

- Molecule: "C[C@@H]1CN(c2nc(-c3cnn(C)c3)cn3ncc(Cl)c23)C(=O)[C@]1(C#N)C1CC1"
  pIC50: "< 5.00"
- Molecule: "C[C@@H]1CN(c2nc(-c3ccn(C)c(=O)c3)cn3nccc23)C(=O)[C@]1(C#N)C1CC1 [Example 261, trifluoroacetate]"
  pIC50: "5.30 to 6.00"
- Molecule: "C[C@@H]1CN(c2ccnn3cc(-c4cnn(C5(CC#N)CC5)c4)cc23)C(=O)[C@]1(C#N)C1CC1"
  pIC50: "5.30 to 6.00"
- Molecule: "C[C@@H]1CN(c2nc(-c3cnc4[nH]ccc4c3)cn3nccc23)C(=O)[C@]1(C#N)C1CC1"
  pIC50: "5.30 to 6.00"
- Molecule: "C[C@@H]1CN(c2ccnn3cc(-c4cnn(C5CC5(F)F)c4)cc23)C(=O)[C@]1(C#N)C1CC1 (mixture of isomers)"
  pIC50: "5.30 to 6.00"

Q: Entry `C[C@@H]1CN(c2ccnc3[nH]c(-c4cnn(C)c4)cc23)C(=O)[C@]1(C#N)C1CC1` : reported pIC50 = ?
Result: 6.00 to 7.00

Q: Entry `C[C@@H]1CN(c2ccnn3cc(-c4cnn(S(C)(=O)=O)c4)cc23)C(=O)[C@]1(C#N)C1CC1` : reported pIC50 = ?
Result: 5.00 to 5.30

* * *

# Experimental Target: Tyk2 kinase activity on STAT4 in NK92 cells (Homo sapiens, UniProt P29597)
# Sequence (P29597 whole entry): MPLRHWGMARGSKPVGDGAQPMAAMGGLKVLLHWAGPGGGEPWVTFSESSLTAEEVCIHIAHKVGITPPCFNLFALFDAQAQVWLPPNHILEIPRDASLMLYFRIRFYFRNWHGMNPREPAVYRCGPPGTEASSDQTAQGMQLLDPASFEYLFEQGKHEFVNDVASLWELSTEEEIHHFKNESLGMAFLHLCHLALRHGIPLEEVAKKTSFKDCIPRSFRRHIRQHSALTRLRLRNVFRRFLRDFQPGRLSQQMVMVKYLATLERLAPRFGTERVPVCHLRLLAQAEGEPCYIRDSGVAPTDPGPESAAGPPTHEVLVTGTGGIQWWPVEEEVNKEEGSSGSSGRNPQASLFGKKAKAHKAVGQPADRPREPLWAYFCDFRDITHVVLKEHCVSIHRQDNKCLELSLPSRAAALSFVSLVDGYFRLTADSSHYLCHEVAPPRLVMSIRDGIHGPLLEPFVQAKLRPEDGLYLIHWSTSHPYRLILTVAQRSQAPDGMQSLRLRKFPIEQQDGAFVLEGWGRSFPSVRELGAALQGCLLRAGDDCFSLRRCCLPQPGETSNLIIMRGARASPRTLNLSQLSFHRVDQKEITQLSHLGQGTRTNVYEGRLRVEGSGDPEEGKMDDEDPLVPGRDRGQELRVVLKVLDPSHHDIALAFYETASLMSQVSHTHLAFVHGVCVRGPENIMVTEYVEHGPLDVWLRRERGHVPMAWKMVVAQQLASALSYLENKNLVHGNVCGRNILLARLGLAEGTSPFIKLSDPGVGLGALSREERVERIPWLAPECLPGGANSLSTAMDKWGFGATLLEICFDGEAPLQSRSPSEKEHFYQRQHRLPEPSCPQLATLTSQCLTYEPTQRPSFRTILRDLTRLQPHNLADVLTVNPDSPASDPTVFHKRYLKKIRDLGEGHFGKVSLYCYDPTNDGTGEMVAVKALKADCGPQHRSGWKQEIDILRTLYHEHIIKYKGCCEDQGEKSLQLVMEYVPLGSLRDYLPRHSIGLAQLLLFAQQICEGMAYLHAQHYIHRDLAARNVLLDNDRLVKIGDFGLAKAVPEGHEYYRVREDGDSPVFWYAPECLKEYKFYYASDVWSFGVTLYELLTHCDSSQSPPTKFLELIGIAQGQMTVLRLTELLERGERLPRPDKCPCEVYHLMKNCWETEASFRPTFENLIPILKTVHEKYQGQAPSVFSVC
# Protocol Details: pSTAT4 cell assay (MSD; NK92 cells, 30 ng/mL IL2 stimulation)
# Study Conditions: 30 ng/mL IL2, 15 minutes
Measurement Type: IC50

# count of solved cases: 2
- Compound: "C[C@@H]1CN(c2ccnn3cc(-c4cnn(C5CN(C)C5)c4)cc23)C(=O)[C@]1(C#N)C1CC1"
  IC50: "50 to 100 nM"
- Compound: "C[C@@H]1CN(c2nc(-c3cnn(CC#N)c3)cn3ncc(F)c23)C(=O)[C@]1(C#N)C1CC1"
  IC50: "> 100 nM"

Q: Entry `C[C@@H]1CN(c2ccnn3cc(-c4cnn(C5(CO)CC5)c4)cc23)C(=O)[C@]1(C#N)C1CC1` : reported IC50 = ?
Result: 50 to 100 nM

Q: Entry `C[C@@H]1CN(c2nc(-c3cnn(C)c3)cc3ncsc23)C(=O)[C@]1(C#N)C1CC1` : reported IC50 = ?
Result: 5 to 20 nM

Q: Entry `CC(C)n1cc(-c2cc3c(N4C[C@@H](C)[C@@](C#N)(C5CC5)C4=O)ccnn3c2)cn1` : reported IC50 = ?
Result: 20 to 50 nM

Q: Entry `C[C@@H]1CN(c2nc(-c3ccc(=O)n(C)c3)cn3nccc23)C(=O)[C@]1(C#N)C1CC1` : reported IC50 = ?
Result: 50 to 100 nM

Q: Entry `C[C@@H]1CN(c2nc(-c3cnn([C@H]4C[C@](C)(C#N)C4)c3)cn3ncc(F)c23)C(=O)[C@]1(C#N)C1CC1` : reported IC50 = ?
Result: 50 to 100 nM

Q: Entry C[C@@H]1CN(c2ccnn3cc(-c4cnn(C5CCOC5)c4)cc23)C(=O)[C@]1(C#N)C1CC1 (some centres unmarked) : reported IC50 = ?
Result: 20 to 50 nM

Q: Entry `C[C@@H]1CN(c2ccnn3cc(-n4cccn4)cc23)C(=O)[C@]1(C#N)C1CC1` : reported IC50 = ?
Result: > 100 nM

Q: Entry `C[C@@H]1CN(c2nc(-c3cnn(-c4ccncc4)c3)cn3nccc23)C(=O)[C@]1(C#N)C1CC1` : reported IC50 = ?
Result: 20 to 50 nM

* * *

# Experimental Target: JAK1 kinase activity on STAT3 in TF1 cells (Homo sapiens, UniProt P23458)
# Sequence (P23458 whole entry): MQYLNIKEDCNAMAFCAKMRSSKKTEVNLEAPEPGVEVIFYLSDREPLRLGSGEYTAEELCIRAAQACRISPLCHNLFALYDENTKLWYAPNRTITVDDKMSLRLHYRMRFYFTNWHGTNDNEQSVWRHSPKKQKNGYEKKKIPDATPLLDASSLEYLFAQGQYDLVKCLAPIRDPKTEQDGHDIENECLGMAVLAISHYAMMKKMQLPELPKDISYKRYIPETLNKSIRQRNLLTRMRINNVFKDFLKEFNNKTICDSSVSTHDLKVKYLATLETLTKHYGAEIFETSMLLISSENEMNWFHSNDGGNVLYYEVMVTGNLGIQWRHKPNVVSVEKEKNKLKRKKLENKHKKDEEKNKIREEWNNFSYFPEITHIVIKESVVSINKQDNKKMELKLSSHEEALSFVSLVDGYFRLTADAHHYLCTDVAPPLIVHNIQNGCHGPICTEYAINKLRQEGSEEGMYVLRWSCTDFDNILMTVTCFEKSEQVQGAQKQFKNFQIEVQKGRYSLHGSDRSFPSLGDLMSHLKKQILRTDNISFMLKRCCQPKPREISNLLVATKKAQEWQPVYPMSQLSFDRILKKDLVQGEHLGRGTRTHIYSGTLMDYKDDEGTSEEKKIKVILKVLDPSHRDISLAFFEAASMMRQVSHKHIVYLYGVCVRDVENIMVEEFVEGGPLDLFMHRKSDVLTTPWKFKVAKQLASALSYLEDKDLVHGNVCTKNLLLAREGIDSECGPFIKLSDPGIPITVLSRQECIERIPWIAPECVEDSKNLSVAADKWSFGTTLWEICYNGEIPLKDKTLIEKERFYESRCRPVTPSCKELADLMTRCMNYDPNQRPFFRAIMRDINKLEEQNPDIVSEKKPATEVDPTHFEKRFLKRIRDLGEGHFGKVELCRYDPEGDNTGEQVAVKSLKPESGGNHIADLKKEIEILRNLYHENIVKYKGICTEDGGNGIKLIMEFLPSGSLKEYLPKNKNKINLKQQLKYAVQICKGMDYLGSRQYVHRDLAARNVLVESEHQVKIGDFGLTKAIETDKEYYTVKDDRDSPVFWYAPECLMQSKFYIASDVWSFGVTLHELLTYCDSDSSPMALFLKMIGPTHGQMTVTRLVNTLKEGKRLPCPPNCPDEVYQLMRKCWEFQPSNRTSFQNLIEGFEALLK
# Protocol Details: pSTAT3 cell assay (MSD; TF1 cells, 30 ng/mL IL-6 stimulation)
# Study Conditions: 30 ng/mL IL-6, 15 minutes
Entries and their IC50 values follow.

# count of solved cases: 3
- Chem Smiles: "C[C@@H]1CN(c2nn(-c3cnn(C(F)F)c3)c3cnccc23)C(=O)[C@]1(C#N)C1CC1"
  Experimental Target: "JAK1 kinase activity on STAT3 in TF1 cells (Homo sapiens, UniProt P23458)"
  IC50: "5 to 10 µM"
- Chem Smiles: "C[C@@H]1CN(c2nc(-c3cnn(C45CC(C4)C5)c3)cn3ncc(F)c23)C(=O)[C@]1(C#N)C1CC1"
  Experimental Target: "JAK1 kinase activity on STAT3 in TF1 cells (Homo sapiens, UniProt P23458)"
  IC50: "0.1 to 1 µM"
- Chem Smiles: "C[C@@H]1CN(c2ccnn3cc(-c4cnn(C5(CC#N)CC5)c4)cc23)C(=O)[C@]1(C#N)C1CC1"
  Experimental Target: "JAK1 kinase activity on STAT3 in TF1 cells (Homo sapiens, UniProt P23458)"
  IC50: "1 to 5 µM"

Now for another entry.
Q: Entry `C[C@@H]1CN(c2nc(-c3cnn([C@H]4C[C@H](C#N)C4)c3)cn3ncc(F)c23)C(=O)[C@]1(C#N)C1CC1` : reported IC50 = ?
Result: 0.1 to 1 µM

* * *

# Experimental Target: JAK2 kinase activity on STAT5 in TF1 cells (Homo sapiens)
# Protocol Details: pSTAT5 cell assay (MSD; TF1 cells, 30 ng/mL IL-3 stimulation)
# Study Conditions: 30 ng/mL IL-3, 15 minutes
pIC50: −log10 of the molar value.
Entries and their pIC50 values follow.

- Molecule: "C[C@@H]1CN(c2nc(-c3ccnc(C#N)c3)cn3nccc23)C(=O)[C@]1(C#N)C1CC1"
  pIC50: "< 5.00"

Q: Entry C[C@@H]1CN(c2nc(-c3cnn(C4CC4(F)F)c3)cn3nccc23)C(=O)[C@]1(C#N)C1CC1 (stereo partly shown) : reported pIC50 = ?
Result: 6.00 to 7.00

* * *

# Experimental Target: JAK1 kinase activity on STAT3 in TF1 cells (Homo sapiens, UniProt P23458)
# Protocol Details: pSTAT3 cell assay (MSD; TF1 cells, 30 ng/mL IL-6 stimulation)
# Study Conditions: 30 ng/mL IL-6, 15 minutes
Counter-ions that a name gives are not always drawn.
Measurement Type: IC50

# count of solved cases: 2
- Molecule: "C[C@@H]1CN(c2ccnn3cc(-c4cn(C)cn4)cc23)C(=O)[C@]1(C#N)C1CC1 [Example 111, trifluoroacetate]"
  IC50: "> 10 µM"
- Molecule: "Cc1cncc(-c2cn3nccc3c(N3C[C@@H](C)[C@@](C#N)(C4CC4)C3=O)n2)c1"
  IC50: "1 to 5 µM"

Q: Entry `C[C@@H]1CN(c2nc(-c3cnn(C4COC4)c3)cn3nccc23)C(=O)[C@]1(C#N)C1CC1` : reported IC50 = ?
Result: 0.1 to 1 µM

Q: Entry `C[C@@H]1CN(c2ccnn3cc(-c4cnc5[nH]ccc5c4)cc23)C(=O)[C@]1(C#N)C1CC1` : reported IC50 = ?
Result: 1 to 5 µM

Q: Entry `Cc1ncc(-c2cn3nccc3c(N3C[C@@H](C)[C@@](C#N)(C4CC4)C3=O)n2)s1` : reported IC50 = ?
Result: 0.1 to 1 µM

* * *

# Experimental Target: JAK1 kinase activity on STAT3 in TF1 cells (Homo sapiens)
# Protocol Details: pSTAT3 cell assay (MSD; TF1 cells, 30 ng/mL IL-6 stimulation)
# Format: cell-based
# Study Conditions: 30 ng/mL IL-6, 15 minutes
pIC50: −log10 of the molar value.
Entries and their pIC50 values follow.

# count of solved cases: 3
- Compound: "C[C@@H]1CN(c2ccnn3cc(-c4cccnc4)cc23)C(=O)[C@]1(C#N)C1CC1 [Example 60]"
  pIC50: "5.30 to 6.00"
- Compound: "C[C@@H]1CN(c2ccnc3cc(-c4cnn(C)c4)oc23)C(=O)[C@]1(C#N)C1CC1 [Example 268]"
  pIC50: "5.30 to 6.00"
- Compound: "Cc1cc(-c2cc3c(N4C[C@@H](C)[C@@](C#N)(C5CC5)C4=O)ccnn3c2)ccn1 [Example 77]"
  pIC50: "6.00 to 7.00"

Q: Entry C[C@@H]1CN(c2c[nH]c3ncc(-c4cnn(C)c4)cc23)C(=O)[C@]1(C#N)C1CC1 [Example 288] : reported pIC50 = ?
Result: 5.30 to 6.00

Q: Entry C[C@@H]1CN(c2nc(-c3cnn(C(F)F)c3)cn3ncc(F)c23)C(=O)[C@]1(C#N)C1CC1 [Example 189] : reported pIC50 = ?
Result: 5.30 to 6.00

Q: Entry C[C@@H]1CN(c2nc(-c3cnn(C4CC(F)(F)C4)c3)cn3nccc23)C(=O)[C@]1(C#N)C1CC1 [Example 290] : reported pIC50 = ?
Result: 6.00 to 7.00

Q: Entry C[C@@H]1CN(c2nc(-c3ccnc(C#N)c3)cn3nccc23)C(=O)[C@]1(C#N)C1CC1 [Example 197] : reported pIC50 = ?
Result: 5.30 to 6.00

Q: Entry COc1cc(-c2cc3c(N4CC[C@](C#N)(C5CC5)C4=O)ccnc3[nH]2)ccn1 [Example 5] : reported pIC50 = ?
Result: 5.00 to 5.30

Q: Entry C[C@@H]1CN(c2nc(-c3cnn([C@H]4CO[C@@H]4C)c3)cn3ncc(F)c23)C(=O)[C@]1(C#N)C1CC1 (relative stereo) [Example 306] : reported pIC50 = ?
Result: 6.00 to 7.00
